Measured IC50 values are reported for all entries that follow.
molecular target: UniProt:O15296; assay: Lipoxygenase UV-Vis-based IC50 assay, h15-LOX-2; settings: read-out: IC50 (μM) (± SD); h15-LOX-2 SAR study, 10 μM AA, 0.01% TritonX-100

As a guide, the following entries are already answered.
>  <compound>
Fc1ccc(CSc2nccn2-c2ccccc2)cc1 [Compound 102]

>  <IC50>
> 100 µM

$$$$
>  <compound>
Cc1cc(C)cc(NC(=O)CSc2nccn2-c2ccccc2)c1 [Compound 116]

>  <IC50>
> 100 µM

$$$$
>  <compound>
Cc1cccc(-n2ccnc2SCC(=O)Nc2ccccc2C(F)(F)F)c1 [Compound 126]

>  <IC50>
> 100 µM

$$$$
>  <compound>
Cc1ccc(C)c(-n2ccnc2SCC(=O)O)c1 [Compound 119]

>  <IC50>
> 100 µM

$$$$

Next up:
Task: Using the record for Cc1ccc(-n2ccnc2SCC(=O)O)cc1C [Compound 124] , report its IC50.
Result: > 100 µM

----------
molecular target: h15-LOX-2 (Homo sapiens (Human), UniProt O15296); assay: Lipoxygenase UV-Vis-based IC50 assay, h15-LOX-2; conditions: read-out: h15-LOX-2 IC50; full IC50 experiment, 10 μM AA, duplicate
Sequence (O15296 whole entry): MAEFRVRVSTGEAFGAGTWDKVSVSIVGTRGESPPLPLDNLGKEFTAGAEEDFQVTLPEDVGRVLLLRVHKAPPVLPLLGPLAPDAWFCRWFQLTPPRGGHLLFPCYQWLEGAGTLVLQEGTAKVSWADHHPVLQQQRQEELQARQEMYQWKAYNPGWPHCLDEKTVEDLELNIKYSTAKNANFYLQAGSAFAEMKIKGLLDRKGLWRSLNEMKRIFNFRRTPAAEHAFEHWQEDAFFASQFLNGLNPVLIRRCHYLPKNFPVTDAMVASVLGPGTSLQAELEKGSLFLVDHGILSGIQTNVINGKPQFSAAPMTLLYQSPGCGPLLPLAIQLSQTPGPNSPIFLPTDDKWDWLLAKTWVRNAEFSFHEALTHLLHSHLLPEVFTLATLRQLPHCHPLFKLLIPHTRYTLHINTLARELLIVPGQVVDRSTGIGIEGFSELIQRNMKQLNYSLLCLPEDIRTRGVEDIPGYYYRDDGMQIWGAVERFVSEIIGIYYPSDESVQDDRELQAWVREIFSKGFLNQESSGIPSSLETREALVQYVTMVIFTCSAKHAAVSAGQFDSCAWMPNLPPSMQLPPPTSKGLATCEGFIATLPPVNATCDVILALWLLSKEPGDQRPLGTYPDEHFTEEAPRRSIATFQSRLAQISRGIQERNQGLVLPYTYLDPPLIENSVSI
quantityMeasured: pIC50
Units for pIC50: none; it is -log10 of a concentration expressed in mol/L.

>  <compoundSmiles>
CCc1ccc(CSc2nccn2-c2ccccc2)cc1

>  <pIC50>
6.06

$$$$

Task: Name the recorded pIC50 for FC(F)(F)c1ccc(CSc2nccn2-c2ccccc2)cc1 .
Result: 6.47

----------
target: h15-LOX-2 (Homo sapiens (Human), UniProt O15296); test: Steady-state inhibition kinetics of h15-LOX-2; format: biochemical; conditions: Dixon replot of slope versus [Inhibitor]; unit given as M; read-out: Kic (FIG. 2 legend)
quantityMeasured: Ki (nM)
State the answer as a number, implicitly in nM.

Task: Would you kindly share the measured Ki for FC(F)(F)c1ccc(CSc2nccn2-c2ccccc2)cc1 [Compound 105] ?
Result: 800

----------
biological target: h15-LOX-2 (Homo sapiens (Human), UniProt O15296); assay: Lipoxygenase UV-Vis-based IC50 assay, h15-LOX-2; details: read-out: % Inhibition at 20 μM
quantityMeasured: inhibition at 20 µM (%)
Number in %, nothing else.

Guide cases for inhibition at 20 µM, answers given:
>  <compoundSmiles>
Fc1ccc(CSc2nccn2-c2ccccc2)cc1

>  <quantityMeasured>
inhibition at 20 µM

>  <reportedMeasurement>
35

$$$$
>  <compoundSmiles>
O=C(CSc1nccn1-c1ccccc1)NO

>  <quantityMeasured>
inhibition at 20 µM

>  <reportedMeasurement>
4

$$$$
>  <compoundSmiles>
Clc1cccc(CSc2nccn2-c2ccccc2)c1

>  <quantityMeasured>
inhibition at 20 µM

>  <reportedMeasurement>
39

$$$$

Task: Endpoint output: inhibition at 20 µM of Cc1ccc(NC(=O)CSc2nccn2-c2ccccc2)cc1 . Value?
Result: 18

Task: Ok, now Cc1ccc(C(=O)CSc2nccn2-c2ccccc2)cc1
Result: 56

----------
molecular target: UniProt P18054
Sequence (P18054 whole entry): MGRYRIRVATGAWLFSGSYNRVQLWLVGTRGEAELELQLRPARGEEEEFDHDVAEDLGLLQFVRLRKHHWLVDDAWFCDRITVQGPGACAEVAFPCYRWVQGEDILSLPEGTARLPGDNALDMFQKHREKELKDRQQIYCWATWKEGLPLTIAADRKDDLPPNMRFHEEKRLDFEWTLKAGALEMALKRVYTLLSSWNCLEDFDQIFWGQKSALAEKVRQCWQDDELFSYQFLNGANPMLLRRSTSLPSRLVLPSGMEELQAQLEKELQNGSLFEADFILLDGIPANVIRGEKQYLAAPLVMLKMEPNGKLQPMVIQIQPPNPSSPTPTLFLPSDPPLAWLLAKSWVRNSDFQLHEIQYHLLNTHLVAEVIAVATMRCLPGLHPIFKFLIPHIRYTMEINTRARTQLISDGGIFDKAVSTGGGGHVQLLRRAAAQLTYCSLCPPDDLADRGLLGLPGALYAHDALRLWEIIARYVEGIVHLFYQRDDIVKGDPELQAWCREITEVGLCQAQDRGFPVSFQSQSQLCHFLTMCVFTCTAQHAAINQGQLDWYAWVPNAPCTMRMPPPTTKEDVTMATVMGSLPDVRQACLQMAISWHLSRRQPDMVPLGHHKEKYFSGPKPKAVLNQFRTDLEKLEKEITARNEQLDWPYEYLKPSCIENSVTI
pIC50: −log10 of the molar value.
quantityMeasured: pIC50

Task: # input compound: Brc1ccc(CSc2nccn2-c2ccccc2)cc1 ; wanted: its pIC50
Result: < 4.00

// data source = patent US20240317691A1
